What Blocking of ATPase activity on cell surface (293T/17-cyno CD39, CellTiter Glo): Top was measured for each of the following?
Biological target: T1, cyno CD39 on the cell surface (293T/17-cyno CD39 cells) (cyno, UniProt P49961 7-510 (human entry))
T1 chain: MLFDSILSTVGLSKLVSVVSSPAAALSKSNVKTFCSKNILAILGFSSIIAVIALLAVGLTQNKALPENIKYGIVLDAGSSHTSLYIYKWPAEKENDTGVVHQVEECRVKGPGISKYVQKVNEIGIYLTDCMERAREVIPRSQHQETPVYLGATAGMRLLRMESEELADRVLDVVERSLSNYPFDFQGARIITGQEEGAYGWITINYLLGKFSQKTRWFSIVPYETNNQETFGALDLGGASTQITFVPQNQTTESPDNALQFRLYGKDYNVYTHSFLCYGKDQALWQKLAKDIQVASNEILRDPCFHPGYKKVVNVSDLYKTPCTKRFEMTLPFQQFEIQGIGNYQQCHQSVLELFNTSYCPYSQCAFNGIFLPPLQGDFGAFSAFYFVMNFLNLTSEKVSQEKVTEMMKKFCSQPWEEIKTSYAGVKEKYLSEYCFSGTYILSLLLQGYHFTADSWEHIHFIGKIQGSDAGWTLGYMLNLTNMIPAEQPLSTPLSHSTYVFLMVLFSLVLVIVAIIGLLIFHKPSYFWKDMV
Assay: cell-based or functional assay
Form: value (number only, do not type unit).

# binder 219 hIgG2 (antibody, V domains shown, Chimeric antibody: mouse Fv fused to the human IgG2 constant region; also called chimeric antibody 219) VH: EVQLVESGGGLVKPGGSLKLSCAASGFTFSDYGMHWVRQAPEKGLEWVAYISSGSSIRYYADTVKGRFTISRDNAKNTLFLQMTSLRSEDTAIYYCARDLYYDHVLDYWGQGTTLTVSS VL: DIQMTQSPSSLSASLGERVSLTCRASQEVSGYLNWLQQKPDGTIKRLIYAASTLDSGVPKRFSGSRSGSDYSLTISSLESEDFADYYCLQYASYPRTFGGGTKVEIKR ; its Blocking of ATPase activity on cell surface (293T/17-cyno CD39, CellTiter Glo): Top = 303000

# binder 201 hIgG2 (antibody, V domains shown, Chimeric antibody: mouse Fv fused to the human IgG2 constant region, expressed in 293F cells; also called chimeric antibody 201) VH: EVQLVESGGGLVKPGGSLKLSCAASGFTFSDYGMHWVRQAPEKGLEWVAYISSGSSIMYYADTVKGRFTISRDNAKNTLFLQMASLRSEDTAMYYCARDLYYDHVLDYWGQGTTLTVSS VL: DIQMTQSPSSLSASLGERVSLTCRASQEIRGYLIWLQQKPGGTIKRLIYAASTLDSGVPKRFSGSRSGSDYSLTISSLESEDFADYYCLQYTSYPRTFGGGTKLEIKR ; its Blocking of ATPase activity on cell surface (293T/17-cyno CD39, CellTiter Glo): Top = 232000

# binder 216 hIgG2 (antibody, V domains shown, Chimeric antibody: mouse Fv fused to the human IgG2 constant region; also called chimeric antibody 216) VH: EVQLVESGGGLVKPGGSLKLPCAASGFTFSDYGMHWVRQAPEKGLEWVAYISSGSSIIYYADTVKGRFTISRDNAKNTLFLQMTSLRSEDTAMYYCARDLYYDHVLDYWGQGTTLTVAS VL: DIQMTQSPSSLSASLGERVSLTCRASQEISGYLIWLQQKPDGTIKRLIYAASTLDSGVPKRFSGNRSGSDYSLTISSLESEDFADYYCLQYASYPRTFGGGTKLEIKR ; its Blocking of ATPase activity on cell surface (293T/17-cyno CD39, CellTiter Glo): Top = 275000

# binder 217 hIgG2 (antibody, V domains shown, Chimeric antibody: mouse Fv fused to the human IgG2 constant region) VH: EVQLVESGGGLVKPGGSLKLSCAASGFTFSDYGMHWVRQAPEKGLEWVAYISSGSSVIYYVDTVKGRFTISRDNAKNTLFLQMTSLRSEDTAMYYCARDLYYDHVLDSWGQGTTLTVSS VL: DIQMTQSPSSLSASLGERVSLTCRASQEIGGYLSWLQQKPDGTIKRLIYAASTLDSGVPKRFSGSRSGSDYSLTISSLESEDFADYYCLQYASYPRTFGGGTKLEIKR ; its Blocking of ATPase activity on cell surface (293T/17-cyno CD39, CellTiter Glo): Top = 283000
